- Test system: LXFL 529
- Test method notes: NCI tumour cell line growth inhibition, 48 h
Calls of active or inactive are those of the source. No stated cut-off is given here; in the data, active = GI50 up to about 1.1 µM and inactive = higher.
Labels: active, inactive

Compound	Qualitative label
O=C(/C=C/c1cc(Cl)cc(Cl)c1O)c1cccc(O)c1	inactive
CC(C)N/C(N)=N/C#N	inactive
Cc1nc2ccccc2c(=O)n1/N=C(\N=N\c1cc(Cl)ccc1Cl)c1ccccc1	inactive
CCC/C(=N\NC(=S)N1CCN(c2ccccn2)CC1)c1ccccn1	active
CC(C)C(=O)Nc1nc2c(ncn2C2OC(CO)C(O)C2O)c(=O)[nH]1 (stereo unspecified)	inactive
CNC1=Nc2ccc(Cl)cc2C(OP(=O)(N2CCOCC2)N2CCOCC2)=NC1	inactive

====

- Tested on: SK-MEL-2
- Test method notes: NCI tumour cell line growth inhibition, 48 h
Calls of active or inactive are those of the source. No stated cut-off is given here; in the data, active = GI50 up to about 1.1 µM and inactive = higher.
Labels: active, inactive

Compound	Qualitative label
O=[N+]([O-])/C(Cl)=C(\NCCO)C(Cl)=C(Cl)Cl	inactive
CN1CCc2cc(N)cc3c2C1Cc1ccc(O)c(O)c1-3 (stereo not drawn)	inactive
CC(C)NC(=O)OCc1c2c(n(C)c1COC(=O)NC(C)C)-c1cc(Cl)c(Cl)cc1CC2	inactive
CCOC(=O)c1cc(-c2ccc(OC)cc2)c([N+](=O)[O-])[nH]1	inactive
CCCCc1ccc(Nc2nc(SC)c3[nH]cnc3n2)cc1	inactive
COc1ccc(/C=C\c2cc(OC)c(OC)c(OC)c2)cc1OC(=O)CCC(=O)O	active
COc1ccc2c(c1)C(=O)c1ccccc1C2	inactive
Cn1c(=O)nc2n(-c3cccc(Br)c3)c3ccccc3nc-2c1=O	inactive
O=C(OCc1ccccc1)N1CCN(C(=O)OCc2ccccc2)CCN(C(=O)OCc2ccccc2)CCN(C(=O)OCc2ccccc2)CCN(C(=O)OCc2ccccc2)CC1	inactive
C=C1C(=O)OC2CC(C)C3CC(O)OC(OCC)C3(C)CC12 (stereo not drawn)	inactive
COC(CC1(OC)OC(=O)C=C1N)OC (stereo not drawn)	inactive
COc1cc(/C=c2/c3ccccc3n3c2cc(-c2ccccc2)[n+]3C)cc(OC)c1OC	inactive
COc1ccc2c(c1)CCN=C2c1ccccc1CCCCl	inactive
COC(=O)N1CC2C3C4CC(C(c5ccccc5)=C4c4ccccc4)C3C21 (stereo not drawn)	inactive
O=C1N[C@@H](O)[C@@H]2ON=C(c3ccccc3)[C@H]12	inactive
N#Cc1cc2c(n(C3OC(CO)C(O)C(O)C3O)c1=S)CCCCC2 (stereo not drawn)	inactive
OC12CCCCCC1(N1CCOCC1)c1ccccc12 (stereo not drawn)	inactive
Cn1c(=O)c(C(=O)NC(=O)NCCCCCOC(=O)CCCCCCCCCCC(=O)OCCCCCNC(=O)NC(=O)c2cn(Cc3ccccc3)c(=O)n(C)c2=O)cn(Cc2ccccc2)c1=O	inactive
C=C1C[C@]23CC[C@@H]4C(CO)(CO)CC(=O)C[C@]4(C)[C@@H]2C(O)C[C@H]1C3 (stereo partly drawn)	inactive
Cc1cc(N(CCC#N)CCC#N)ccc1C(=N/NC(=O)c1cc(Cl)ccc1O)/N=N/c1cccc([N+](=O)[O-])c1	inactive
C1=C2SSC3=CC=C(SSc4ccc(s4)SSC4=CC=C(SSC(=C1)S2)S4)S3	inactive
CCC1c2[nH]c3ccccc3c2C[C@H]2C(=O)NC(COC(C)(C)C)C(=O)N12 (stereo partly drawn)	inactive
c1ccc2cc3c(cc2c1)OP1(Oc2cccc4cccnc24)(O3)Oc2cc3ccccc3cc2O1	inactive
CS(=N)(=O)CCC(N)P(=O)(O)O (stereo not drawn)	inactive
CC(=O)OC12c3ccccc3-c3ccccc3C1C1C(=O)N(C)C(=O)C12Cl (stereo not drawn)	inactive
CCOC(CN(C)C(=S)Nc1cccc2ccccc12)OCC	inactive
COc1ccc(C(=O)N(C(=O)N2CCN(c3ccccc3)CC2)S(=O)(=O)c2ccccc2)cc1	inactive
CC1C(=NO)C(C)C(c2ccccc2)N(N=O)C1c1ccccc1 (stereo not drawn)	inactive

====

- Tested on: HL-60
- Test method notes: NCI tumour cell line growth inhibition, 48 h
The source made the active and inactive calls. Rule as the data show it: active = GI50 up to about 1.1 µM and inactive = higher.
Endpoint label: GI50

Compound	Endpoint label	Result
CC(=O)O[C@H]1C(=O)[C@@]2(C)C(C(OC(=O)c3ccccc3)[C@]3(O)CC(OC(=O)C(O)C(NC(=O)c4ccccc4)c4cccc(Cl)c4)C(C)=C1C3(C)C)[C@]1(OC(C)=O)CO[C@@H]1C[C@@H]2O (stereo partly specified)	GI50	1.38 µM (inactive)
CCCCOc1ccc(NC(=N)Nc2ccc(Cl)cc2)cc1	GI50	6.49 µM (inactive)
CCC(=O)c1cc(C(=O)C(=S)SC)cc(C(=O)C(=S)SC)c1	GI50	4.83 µM (inactive)
CN(C)c1ccc(/C=C(\NC(=O)c2ccccc2)C2=NC(CCC(=O)O)C(=O)O2)cc1 (stereo unspecified)	GI50	49.9 µM (inactive)
N[C@H]1CCC[C@@H](O)C1O (stereo partly specified)	GI50	> 100 µM (inactive)
CN(C)c1ccc(/C=N/c2ccc(-c3nc4ccccc4o3)cc2)cc1	GI50	20.8 µM (inactive)

====

- System: CAKI-1
- Test method notes: NCI tumour cell line growth inhibition, 48 h
The source made the active and inactive calls. Rule as the data show it: active = GI50 up to about 1.1 µM and inactive = higher.
Labels: true (1) (active), false (0) (inactive)

Compound	Qualitative label
N[C@H]1CCC[C@@H](O)C1O (stereo partly specified)	false (0)
O=C1OCC(CN2CCC(n3c(=O)[nH]c4ccccc43)CC2)=C1c1ccccc1	false (0)
CC(=O)OC/C=C/Cn1nc(Br)c(=O)[nH]c1=O	false (0)
Cc1c(CCCl)c(N=[N+]=[N-])n2c(nc3ccccc32)c1C#N	false (0)
CN(C)Cc1cc(/N=N/c2ccc(Cl)cc2)cc(CN(C)C)c1O	false (0)
Nc1ccccc1OCc1cc(=O)c(OCc2ccccc2)co1	false (0)
CC(C)(S)C(N)C(=O)O (stereo unspecified)	false (0)
C/C(=N\Nc1nc2cc(F)ccc2s1)c1ccccn1	true (1)
CC(C)(C)OC(=O)CCC1NC(=O)[C@@H]2Cc3c([nH]c4ccccc34)C(C3CCCCC3)N2C1=O (stereo partly specified)	false (0)
Cc1nn(C(=O)c2ccc(Cl)cc2)c2c1C(c1ccccc1[N+](=O)[O-])SC(=N)N2 (stereo unspecified)	false (0)
CCCCN(Cc1ccccc1)/C(=N/C#N)N(Cc1ccccc1)Cc1ccccc1	false (0)
CCOC(=O)/C=C1\C[C@H](NC(=O)OCc2ccccc2)C(=O)N1CC(=O)OCC	false (0)
O=C1NC(c2cccc(OCc3ccccc3)c2)Nc2ccccc21 (stereo unspecified)	true (1)
C[N+]1=C2[B-](C(C)(C)C)=[N+](C(C)(C)C)[B-]2(C(C)(C)C)[N+](C)=C2[B-](C(C)(C)C)=[N+](C(C)(C)C)[B-]21C(C)(C)C (stereo unspecified)	false (0)
CC(C(=O)OCc1ccccc1)(c1ccco1)N1C(=O)OC(c2ccccc2)C1c1ccccc1 (stereo unspecified)	false (0)
C[N+](C)([O-])CCCNc1c2ccccc2nc2cccc([N+](=O)[O-])c12	false (0)
O=C(/C=C/c1cc(Cl)cc(Cl)c1O)c1cccc(O)c1	false (0)
O=C1O[C@@H](c2ccccc2)C[C@H]1CN1CCOCC1	false (0)
Clc1cccc(-c2nnc(-c3nn(-c4ccccc4)c4nc5ccccc5nc34)o2)c1	false (0)
C=C1C(=O)OC2CC(C)C3CC(O)OC(OCC)C3(C)CC12 (stereo unspecified)	false (0)
CCCCCCC(O)C/C=C/CCCCCC/C(C(=O)OC)=C(/O)C(=O)OCC (stereo unspecified)	false (0)
CC(=O)OCC1=C(C)C[C@H]([C@@H](COC(C)=O)C2CCC3C4C[C@H]5O[C@]56CC=CC(=O)[C@]6(C)C4CC[C@@]32C)OC1=O (stereo partly specified)	true (1)
COC1=CC(=O)C2=C(C1=O)[C@H]1CC[C@]3(C)[C@@H](OC(C)=O)CC[C@H]3[C@@H]1CC2	false (0)
Cc1ccc(C(=O)N/N=C(\N=N\c2ccc([N+](=O)[O-])cc2)c2ccc(N(CCC#N)CCC#N)cc2C)cc1	false (0)
CC(=O)C1(O)CCC2(O)C3(O)CC=C4CC(O)CCC4(C)C3CC(OC(=O)c3ccc(O)cc3)C12C (stereo unspecified)	false (0)
Sc1nn2c(COc3cccc(OCc4nnc5sc(S)nn45)c3)nnc2s1	false (0)
CCN(CC)c1ccc(/N=N/c2ccc(-c3nc4cccnc4s3)cc2)cc1	false (0)
COC1=CC(=O)c2c(cc(COP(N)(=O)N(CCBr)CCBr)n2C)C1=O (stereo unspecified)	true (1)
CN(C)C(=S)Nc1nnc(Nc2ccccc2)s1	false (0)
O=C1N[C@@H](O)[C@@H]2ON=C(c3ccccc3)[C@H]12	false (0)
c1ccc(COc2ccc(C[P+](c3ccccc3)(c3ccccc3)c3ccccc3)cc2)cc1	false (0)

====

- Tested on: RXF 393
- Test method notes: NCI tumour cell line growth inhibition, 48 h
Calls of active or inactive are those of the source. Cut-off read from the data, not from the text of the source: active = GI50 up to about 1.1 µM and inactive = higher.
Endpoint label: GI50

Compound	Result
C#CN1C(=O)c2c(c(-c3ccccc3)c(-c3ccc(Oc4ccc(-c5c(-c6ccccc6)c6c(c(-c7ccccc7)c5-c5ccccc5)C(=O)N(C#C)C6=O)cc4)cc3)c(-c3ccccc3)c2-c2ccccc2)C1=O	30.8 µM (inactive)
CSCSCC(N)CO.Cc1[nH]c(=O)[nH]c(=O)c1/C=C/C(=O)O	> 625 µM (inactive)
O=c1[nH]ncc2[nH]c3c4ccccc4ccc3c12	46.2 µM (inactive)
Clc1ccc(C2=NCON=C2c2ccc(Cl)cc2)cc1	18.7 µM (inactive)
Cc1ccc(S(=O)(=O)NC(=O)NC2=NC(C)(C)N(c3ccc(Cl)c(Cl)c3)C(N)=N2)cc1	66.7 µM (inactive)
O=C(c1ccccc1)c1ccc(C(c2c(O)c3ccccc3oc2=O)c2c(O)c3ccccc3oc2=O)cc1	27.2 µM (inactive)
Cc1ccc(NC(=O)CCc2n[nH]c(=S)o2)cc1	> 100 µM (inactive)
CCCCc1ccc(Nc2nc(SC)c3[nH]cnc3n2)cc1	28.2 µM (inactive)
CC(C)C(=O)Nc1nc2c(ncn2C2OC(CO)C(O)C2O)c(=O)[nH]1 (stereo not given)	> 100 µM (inactive)
Clc1cccc(Cl)c1/C=N/C12CC3CC(CC(C3)C1)C2	> 10 µM (inactive)
O=C(Nc1cnc(O)nc1O)C(Cl)Cl	> 100 µM (inactive)
CC(=O)OC1=CC2(OC(C)=O)CC(C)(C)C1C1C(=O)C=CC(=O)C12 (stereo not given)	44.6 µM (inactive)
C=C1C(=O)OC2CC3(CO3)C3C(O)C(O)CC3(C)CC12 (stereo not given)	16.7 µM (inactive)
CN(C)CC/C(=N\Nc1ccc(Cl)cc1Cl)c1ccccc1	7.96 µM (inactive)
COC(=O)C1CCCCCCCCCCC12SCCCS2 (stereo not given)	19 µM (inactive)
